Test system: Ent. cloacae A9659
Experiment: Antibiotic activity in nutrient broth (MIC)
Type: cell-based
Conditions: Enterobacter cloacae, A9659, inoculum 10^-4; derivatives adjusted for BL-S640 content; read-out: MIC
Text: Antibiotic Activity In Nutrient Broth ** Dilution of overnight broth culture. Antibiotic Spectrum Nutrient Broth Antibiotic Spectrum in Nutrient Broth
Task for the reader: assign each of the following molecules its reported MIC.
Numbers only, in µg/mL.

// worked examples, MIC included
O=C(O)COc1ccccc1C1N[C@H](c2ccc(O)cc2)C(=O)N1[C@@H]1C(=O)N2C(C(=O)O)=C(CSc3cnn[nH]3)CS[C@H]12 (stereo partly shown)
32
O=C(O)C1=C(CSc2cnn[nH]2)CS[C@@H]2[C@H](N3C(=O)[C@@H](c4ccc(O)cc4)NC3c3ccccc3S(=O)(=O)O)C(=O)N12 (stereo partly shown)
63
N[C@@H](C(=O)N[C@@H]1C(=O)N2C(C(=O)O)=C(CSc3cnn[nH]3)CS[C@H]12)c1ccc(O)cc1 [BL-S640, reference compound]
63

Continue with the molecule presented below.
IN: Query: MIC; subject: O=C(O)C1=C(CSc2cnn[nH]2)CS[C@@H]2[C@H](N3C(=O)[C@@H](c4ccc(O)cc4)NC3c3ccc(S(=O)(=O)O)o3)C(=O)N12 (stereo partly shown)
OUT: 32
